tested on: Staphylococcus aureus; assay: Antibacterial activity against methicillin-susceptible Staphylococcus aureus 69856 assessed as inhibition of bacterial growth incubated for 18 to 24 hrs by broth microdilution method; type: functional
readout-label: MIC (µg/mL)
Give bare numbers, in µg/mL.

Consider the reported MIC for these compounds:
C[C@@H](OC(=O)c1ccc2c(c1)OCO2)[C@H]1C(=O)N/C1=C\C(=O)OCc1ccccc1	8
COc1cc(/C=C/C(=O)O[C@H](C)[C@H]2C(=O)N/C2=C\C(=O)OCc2ccccc2)ccc1O	8
C[C@@H](OC(=O)/C=C/c1ccc(O)cc1)[C@H]1C(=O)N/C1=C\C(=O)OCc1ccccc1	8
CO/N=C(\C(=O)N[C@@H]1C(=O)N2C(C(=O)O)=C(COC(N)=O)CS[C@H]12)c1ccco1 [CEFUROXIME]	1

Problem: Determine from records and report MIC for `C[C@@H](OC(=O)c1ccc(O)c(O)c1)[C@H]1C(=O)N/C1=C\C(=O)OCc1ccccc1`
Result: 4

----------
test system: Enterococcus faecalis; experiment: Antibacterial activity against linezolid and […] 4150 assessed as inhibition of bacterial growth incubated for 18 to 24 hrs by broth microdilution method; type: functional
Exercise: for every item that follows, state its recorded MIC.

C[C@@H](OC(=O)c1ccc(O)c(O)c1)[C@H]1C(=O)N/C1=C\C(=O)OCc1ccccc1	128 µg/mL
C[C@@H](OC(=O)/C=C/c1ccc(O)cc1)[C@H]1C(=O)N/C1=C\C(=O)OCc1ccccc1	64 µg/mL
C[C@@H](OC(=O)c1ccc2c(c1)OCO2)[C@H]1C(=O)N/C1=C\C(=O)OCc1ccccc1	> 128 µg/mL
C[C@@H](OC(=O)/C=C/c1ccccc1O)[C@H]1C(=O)N/C1=C\C(=O)OCc1ccccc1	> 128 µg/mL

I have 8 compounds here; please give me MIC for each one.
1. CO/N=C(\C(=O)N[C@@H]1C(=O)N2C(C(=O)O)=C(COC(N)=O)CS[C@H]12)c1ccco1
2. C[C@@H](OC(=O)c1ccc(O)cc1)[C@H]1C(=O)N/C1=C\C(=O)OCc1ccccc1
3. C[C@@H](OC(=O)/C=C/c1ccc(O)c(O)c1)[C@H]1C(=O)N/C1=C\C(=O)OCc1ccccc1
4. CN[C@H](CC(C)C)C(=O)N[C@H]1C(=O)N[C@@H](CC(N)=O)C(=O)N[C@H]2C(=O)N[C@H]3C(=O)N[C@H](C(=O)N[C@H](C(=O)O)c4cc(O)cc(O)c4-c4cc3ccc4O)[C@H](O)c3ccc(c(Cl)c3)Oc3cc2cc(c3O[C@@H]2O[C@H](CO)[C@@H](O)[C@H](O)[C@H]2O[C@H]2C[C@](C)(N)[C@H](O)[C@H](C)O2)Oc2ccc(cc2Cl)[C@H]1O
5. COc1cc(/C=C/C(=O)O[C@H](C)[C@H]2C(=O)N/C2=C\C(=O)OCc2ccccc2)cc(OC)c1O
6. COc1cc(/C=C/C(=O)O[C@H](C)[C@H]2C(=O)N/C2=C\C(=O)OCc2ccccc2)ccc1O
7. C[C@@H](OC(=O)/C=C/c1ccc2c(c1)OCO2)[C@H]1C(=O)N/C1=C\C(=O)OCc1ccccc1
8. C[C@@H](OC(=O)c1cccc2c1OCO2)[C@H]1C(=O)N/C1=C\C(=O)OCc1ccccc1

Result:
1: > 128 µg/mL; 2: > 128 µg/mL; 3: > 128 µg/mL; 4: 0.25 µg/mL; 5: > 128 µg/mL; 6: 8 µg/mL; 7: > 128 µg/mL; 8: > 128 µg/mL
